Reported drug sensitivity score is given for each of the following compounds.
# System: BT-474
# runDescription: drug sensitivity score (DSS) (DSS (dimensionless)); higher = more sensitive; extreme values may be limits of the assay
# setupConditions: 4-OH-tamoxifen in medium 1 µM; 72 h
I'd appreciate a reply containing only the number, no unit.

Some entries whose results are on file:
{"columns": ["compound", "resultNumber"],
 "data": [
  ["O=P1(N(CCCl)CCCl)NCCCO1 (centres undefined) [Clafen (Cyclophosphamide, Endoxan)]", 0],
  ["CS(=O)(=O)CCNCc1ccc(-c2ccc3ncnc(Nc4ccc(OCc5cccc(F)c5)c(Cl)c4)c3c2)o1 [Lapatinib]", 12.2],
  ["CC/C(=C(\\c1ccc(O)cc1)c1ccc(OCCN(C)C)cc1)c1ccccc1 [4-hydroxytamoxifen]", 5.15]
]}

Now, please, on to the next compound.
Form field: reported drug sensitivity score of Nc1nc2[nH]cc(CCc3ccc(C(=O)N[C@@H](CCC(=O)O)C(=O)O)cc3)c2c(=O)[nH]1 [Pemetrexed] 0

---

# System: BT-474 Tam2
# runDescription: relative IC50 (midpoint of fitted logistic curve, plateau may be below 50% inhibition; CellTiter-Glo viability); higher = less potent
# setupConditions: 4-OH-tamoxifen in medium 1 µM; 72 h
Catalogue of relative IC50 values

In the examples that follow, each entry is paired with its recorded relative IC50.
{"columns": ["compound", "recordedMetric", "result"],
 "data": [
  ["CC(C)C[C@H](NC(=O)[C@H](Cc1ccccc1)NC(=O)c1cnccn1)B(O)O", "relative IC50", "0.00598 µM"],
  ["CC1=C(/C=C/C(C)=C/C=C/C(C)=C/C(=O)O)C(C)(C)CCC1", "relative IC50", "> 10 µM"],
  ["CC/C(=C(\\c1ccc(O)cc1)c1ccc(OCCN(C)C)cc1)c1ccccc1 [4-hydroxytamoxifen]", "relative IC50", "3.57 µM"]
]}

Reported relative IC50, compound CC(=O)Nc1ccc(C(=O)Nc2ccccc2N)cc1 : ____ > 1 µM

What does the record list as relative IC50 for O=P(O)(NCCCl)NCCCl [Ifosfamide mustard] ? > 10 µM

Value lookup for relative IC50; key = COc1c(C)cnc(Cn2cnc3c(Cl)nc(N)nc32)c1C 0.0569 µM

Name the reported relative IC50 value associated with the compound CCCCCCCCc1ccc(CCC(N)(CO)CO)cc1 3.39 µM

# lookup: relative IC50 of O=C(c1cc(Cc2n[nH]c(=O)c3ccccc23)ccc1F)N1CCN(C(=O)C2CC2)CC1 > 10 µM

Looking for the measured relative IC50 of CS(=O)(=O)OCCCCOS(C)(=O)=O , can you help? > 100 µM

# lookup: relative IC50 of O=C1CCC(N2C(=O)c3ccccc3C2=O)C(=O)N1 (stereo not given) [Thalidomide] > 10 µM

---

# Test system: ZR-75-1 Tam2
# runDescription: viability inhibition at highest dose (% inhibition); higher = more growth inhibition
# setupConditions: 4-OH-tamoxifen in medium 1 µM; 72 h
Collected viability inhibition at highest dose values appear next to each entry.
Simply state the number, no unit and no words.

Sample records with viability inhibition at highest dose:
{"columns": ["compound", "measurementTarget", "viability inhibition at highest dose"],
 "data": [
  ["CC[C@H](Nc1ncnc2[nH]cnc12)c1nc2cccc(F)c2c(=O)n1-c1ccccc1 [CAL-101] (drug 10000 nM)", "ZR-75-1 Tam2", 57.3],
  ["Cc1c2oc3c(C)ccc(C(=O)N[C@@H]4C(=O)N[C@H](C(C)C)C(=O)N5CCC[C@H]5C(=O)N(C)CC(=O)N(C)[C@@H](C(C)C)C(=O)O[C@@H]4C)c3nc-2c(C(=O)N[C@@H]2C(=O)N[C@H](C(C)C)C(=O)N3CCC[C@H]3C(=O)N(C)CC(=O)N(C)[C@@H](C(C)C)C(=O)O[C@@H]2C)c(N)c1=O [Dactinomycin] (drug 1000 nM)", "ZR-75-1 Tam2", 60.9],
  ["Cc1ccc(F)c(NC(=O)Nc2ccc(-c3cccc4[nH]nc(N)c34)cc2)c1 [Linifanib (ABT-869)] (drug 1000 nM)", "ZR-75-1 Tam2", -0.131],
  ["CC(C)(C)NC(=O)[C@H]1CC[C@H]2[C@@H]3CC[C@H]4NC(=O)C=C[C@]4(C)[C@H]3CC[C@]12C [Finasteride] (drug 10000 nM)", "ZR-75-1 Tam2", 4.5]
]}

Find the recorded viability inhibition at highest dose belonging to COc1cc([C@@H]2c3cc4c(cc3[C@@H](O[C@@H]3O[C@@H]5CO[C@@H](C)O[C@H]5[C@H](O)[C@H]3O)[C@H]3COC(=O)[C@H]23)OCO4)cc(OC)c1O [Etoposide] (drug 10000 nM) and report it. 15.5
